assay: Cytotoxicity against human HT-29 cells assessed as cell viability at 100 uM after 48 hrs by MTT assay relative to control; assay type: cell-based; conditions: read-out: Activity
measured metric: viability at 48 h, 100 µM (%)
Express the result in % but write the number alone.

1. O=S(=O)(c1ccc2ccccc2c1)N1CCN(c2ccnc3cc(Cl)ccc23)CC1 | 59.8

Give the value of viability at 48 h, 100 µM reported for the following: `CC[C@@]1(O)C(=O)OCc2c1cc1n(c2=O)Cc2cc3ccccc3nc2-1`
48.3

Give the value of viability at 48 h, 100 µM reported for the following: `CC(=O)Nc1ccc(S(=O)(=O)N2CCN(c3ccnc4cc(Cl)ccc34)CC2)cc1`
96.8

Give the value of viability at 48 h, 100 µM reported for the following: `O=S(=O)(c1cc(Cl)ccc1Cl)N1CCN(c2ccnc3cc(Cl)ccc23)CC1`
63.4

Give the value of viability at 48 h, 100 µM reported for the following: `O=S(=O)(c1ccccc1)N1CCN(c2ccnc3cc(Cl)ccc23)CC1`
55.1

Give the value of viability at 48 h, 100 µM reported for the following: `CS(=O)(=O)N1CCN(c2ccnc3cc(Cl)ccc23)CC1`
73

Give the value of viability at 48 h, 100 µM reported for the following: `Cc1ccc(S(=O)(=O)N2CCN(c3ccnc4cc(Cl)ccc34)CC2)cc1`
64.5
